Study System: KDM7A dual domain (Homo sapiens, UniProt Q6ZMT4)
Sequence (Q6ZMT4 38-480 limits assumed): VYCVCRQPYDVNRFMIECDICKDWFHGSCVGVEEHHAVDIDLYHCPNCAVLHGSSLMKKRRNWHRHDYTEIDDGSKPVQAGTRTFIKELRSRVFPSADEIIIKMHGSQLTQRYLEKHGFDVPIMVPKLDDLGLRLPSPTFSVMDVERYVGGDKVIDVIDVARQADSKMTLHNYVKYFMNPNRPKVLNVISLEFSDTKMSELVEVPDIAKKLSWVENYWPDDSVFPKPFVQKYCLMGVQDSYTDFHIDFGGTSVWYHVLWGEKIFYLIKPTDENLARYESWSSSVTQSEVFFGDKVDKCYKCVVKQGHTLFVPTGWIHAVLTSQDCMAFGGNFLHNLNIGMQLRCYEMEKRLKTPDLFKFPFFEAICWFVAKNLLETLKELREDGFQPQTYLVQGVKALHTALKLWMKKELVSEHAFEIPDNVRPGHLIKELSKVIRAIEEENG
Quantity Measured: IC50 (nM)
Only the number, expressed in nM, is required.

### Prompt Query (compound): CN(C)NC(=O)CCC(=O)O [DAM, daminozide, reference compound] ; field requested: IC50
### Response 251
